Test system: MS2 coat protein
assayText: apparent KD of MS2 coat protein; designed switch direction (-1 OFF switch, 1 ON switch): -1; higher = weaker reporter binding
testParameters: input ligand: microRNA oligo, concentration not stated
# Lookup of reported apparent KD of MS2 coat protein keyed by entry

sequenceRecord	assayedSystem	apparent KD of MS2 coat protein (nM)
ACAUGUAAUGCAGGAUAUCGGACACAUGAGGAUCACCCAUGUGACCUGAGGUAUUGCUAAGAGUCUGAGAAGGGUAUGUACAUG [Ex NG2 #51] (Eterna round: R96, puzzle: Exclusion NG 2)	MS2 coat protein	15.7
GACUAGGCAGGAUAUACAUGAGGAUCACCCAUGUGUCUGCGUUGGGCACGUGAACACCGUAGAAGGGCCUUGAC [ChP 13.04.2015 #14] (Eterna round: R96, puzzle: Exclusion 3)	MS2 coat protein	16.2
GCACGGAGUGUAGGAUAUUAGUGCGAUUAGCACUGAGAAGGACAUGAGGAUCACCCAUGUUCCUCAUAAAUUAGCCUUCCGUGC [Eli exng1 - 037] (Eterna round: R96, puzzle: Exclusion NG 1)	MS2 coat protein	21
UGUUGUUACGUAGGAUAUUGCCAACAGGCAGUAGGAUAUGCGAAAGCAGAAGGACCGCCAACAGGCGAGAAGGACGGGUUAACA [pwkr exNG2 2xF7 2xFMN.11] (Eterna round: R96, puzzle: Exclusion NG 2)	MS2 coat protein	31.5
UUAAAUCAUGUAGGAUAUGCGUGGCGAAGCUAUGCAGAAGGACAUGAGGAUCACCCAUGUGCUAGCGUCCGCGUACGGAUGCAA [JL ENG1 1.21] (Eterna round: R96, puzzle: Exclusion NG 1)	MS2 coat protein	57.1
UGUUGUCGCGUAGGAUAUGUAUGAGGAUCACCCAUUAAUAAAUUUUAACCACGAGGAUCACCCGUGUAGAAGGACGGGACAACA [pwkr exNG2 2xF5 1xFMN.16] (Eterna round: R96, puzzle: Exclusion NG 2)	MS2 coat protein	18.1
AUGACAGGACAUGAGGAUCACCCAUGUACACGACCAAUGACCGAGGAUAUCGAUUGCAUGCAGGUCGAGAAGGCGGAGUAUCCA [Eternabot solution 3] (Eterna round: R96, puzzle: Exclusion NG 3)	MS2 coat protein	30.9
AUACGCCAGGUAGGAUAUAGUACGUCGGCAACAUGAGGAUCACCCAUGUGGCCUCGUGUCUGGCACUAGAAGGGCCGAGGCCUU [Raatalave] (Eterna round: R96, puzzle: Exclusion NG 2)	MS2 coat protein	26.2
CGUCGACAUGUAGGAUAUCUGCACGUUUAGUGCAGAGAAGGACAUGAGGAUCACCCAUGUAGAUCACGACGAAUUAAUUUAAUU [ENG1/6-C2] (Eterna round: R96, puzzle: Exclusion NG 1)	MS2 coat protein	205
ACAUGAGGAUCACCCAUGUGACCACAAUGGCUGAUAUAGAAACAGGAUAUUCGUGAAUAUCUAACGAAGAAGGGUUAUGACUGG [Deportation 65 - Jieux - Exclusion NG 3] (Eterna round: R96, puzzle: Exclusion NG 3)	MS2 coat protein	61
UACAUGAGGAUCACCCAUGUUUUGUCGUGUAUGGUAUUUAUCUAGGAUAUCAAUUGAUUUAGUUAUGAGAAGGAGAAUAUUAAU [JMF's solution 62] (Eterna round: R96, puzzle: Exclusion NG 3)	MS2 coat protein	20.6
AUUCCAACUUGAGGAUAUUAGUGGAACAGCCACUGAGAAGGCAGAUAACACCCUCAUAAACAUGAGGAUCACCCAUGUAGGAGA [Eternabot solution 44] (Eterna round: R96, puzzle: Exclusion NG 1)	MS2 coat protein	78.1
GAGUACUGAGGAUAUACAUGAGGAUCACCCAUGUGUUCCAGCUAGGAAACUAGCAAAAGUAGAAGGCAGUACUG [salish99_ex3_r3_084] (Eterna round: R96, puzzle: Exclusion 3)	MS2 coat protein	19.3
UAAGGGUGCGUAGGAUAUCGCGGCCGAAUAAAGCGAGAAGGACGCCCUAAUGGGUCGUCCAACAUGAGGAUCACCCAUGUAUAC [Uslaarus] (Eterna round: R96, puzzle: Exclusion NG 1)	MS2 coat protein	31.2
GCUGCGCGAGGAUAUGCGGUUUGCGCUGUGGCCCGUGGCGUACAUGAGGAUCACCCAUGUAGAAGGCGUGUGGG [Apr-15 SS2-55] (Eterna round: R96, puzzle: Exclusion 2)	MS2 coat protein	21.3
AGUAGUUACGCAGGAUAUGAGGAUCACCCAUAGAAGGAUAUCGAAAGAGAAGGUCUGAGGAUUACCCAGAAGGGCGUGACUACA [pwkr exNG2 2xF5 2xFMN.5] (Eterna round: R96, puzzle: Exclusion NG 2)	MS2 coat protein	113
UUAGUUUUGCAAGGAUAUGUUUAUUUAUAGUUGCCUCUUACAUGAGGAUCACCCAUGUUUUACUUACAGAAGGUGCAAUGAUUU [JR_ExcNG2_Sub034] (Eterna round: R96, puzzle: Exclusion NG 2)	MS2 coat protein	138
GCACGGAUGGUAGGAUAUCAUUGCGAUUAGCUAUGAGAAGGACCACAUGAGGAUCACCCAUGUCCUCUAAUUAGCCUUCCGUGC [Eli exng1 - 016] (Eterna round: R96, puzzle: Exclusion NG 1)	MS2 coat protein	156
